tested on: intracellular L. donovani amastigotes in mouse macrophages; assay: intracellular L. donovani amastigotes in mouse macrophages; assay type: cell-based, Leishmania donovani; conditions: Leishmania donovani, Macrophage, not active, read-out: IC50 against intracellular L. donovani amastigotes

compound: C=C(C)C1CCC2(C(=O)O)CCC3(C)C(CCC4C5(C)C(C(=O)O)C(OC(=O)c6ccccc6)C(C)(C)C5CCC43C)C12 (stereo not shown)
IC50: > 50 µM

###

experiment: cytotoxicity in L6 cells; type: cell-based, rat; settings: rat, L6 cells (rat skeletal myoblasts, ATCC CRL-1458), rat skeletal myoblast (L6 cells); 72 h exposure; means of two independent assays ± deviation from the mean; read-out: IC50 Cytotoxicity
Below, each of the compounds is paired with its reported IC50 at 72 h value.
value.type: IC50 at 72 h (µM)

compound: CCC(C)[C@@H]1NC(=O)[C@@H](NC(=O)[C@H](Cc2ccccc2)N(C)C)[C@H](C(C)C)Oc2ccc(cc2)/C=C\NC1=O (stereo partly shown)
readout.relation: >
number: 50

compound: CC(C)=CCC1=C(O)C(=O)c2c(O)ccc(O)c2C1=O
readout.relation: =
number: 14

compound: CC(C)=CC[C@@]12O[C@@H]1C(=O)c1c(O)ccc(O[C@@H]3O[C@H](CO)[C@@H](O)[C@H](O)[C@H]3O)c1C2=O
readout.relation: =
number: 12.2

compound: CC(C)=CCC1=C(Cl)C(=O)c2c(O)ccc(O)c2C1=O
readout.relation: =
number: 7.9
